Sourced from patent US10052320B2

Target Desc: Ba/F3-FGFR3-transfected cells (Homo sapiens, UniProt P22607)
Sequence (P22607 whole entry, change not shown): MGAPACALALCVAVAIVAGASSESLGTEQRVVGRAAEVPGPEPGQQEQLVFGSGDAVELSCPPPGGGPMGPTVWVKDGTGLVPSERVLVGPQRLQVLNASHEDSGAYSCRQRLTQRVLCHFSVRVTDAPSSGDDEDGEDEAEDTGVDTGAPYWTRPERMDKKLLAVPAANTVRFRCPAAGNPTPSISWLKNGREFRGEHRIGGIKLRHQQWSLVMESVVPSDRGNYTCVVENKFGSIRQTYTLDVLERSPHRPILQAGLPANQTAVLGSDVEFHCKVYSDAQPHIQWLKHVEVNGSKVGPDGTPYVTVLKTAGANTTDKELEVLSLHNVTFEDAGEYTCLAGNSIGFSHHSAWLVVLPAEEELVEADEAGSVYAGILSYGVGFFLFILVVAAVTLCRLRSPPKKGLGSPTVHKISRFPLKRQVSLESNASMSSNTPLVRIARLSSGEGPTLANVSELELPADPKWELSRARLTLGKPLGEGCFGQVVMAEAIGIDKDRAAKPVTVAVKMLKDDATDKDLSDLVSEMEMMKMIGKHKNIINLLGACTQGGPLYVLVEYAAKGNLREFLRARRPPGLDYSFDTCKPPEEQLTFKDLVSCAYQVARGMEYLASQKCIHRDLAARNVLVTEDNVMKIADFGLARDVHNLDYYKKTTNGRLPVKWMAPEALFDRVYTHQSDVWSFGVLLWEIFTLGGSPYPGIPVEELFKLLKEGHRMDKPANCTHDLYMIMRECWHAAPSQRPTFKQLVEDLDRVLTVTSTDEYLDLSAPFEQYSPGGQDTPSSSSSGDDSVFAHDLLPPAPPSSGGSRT
Assay Text: Ba/F3-FGFR3 (minus IL3) cellular proliferation assay, Alamar Blue
Format: cell-based
Measurement Parameters: minus IL3, 384 well

| Query Smiles | BAF3-FGFR 3 (MIN IL3) 384 well pIC50 |
| --- | --- |
| COc1cc(OC)cc(N(CC2CC2)c2ccc3ncc(-c4cnnn4C)nc3c2)c1 | <5 |
| COc1cc(OC)cc(N(CC2CC2)c2ccc3ncc(-c4nnnn4C)nc3c2)c1 | <5 |
| COc1cc(OC)cc(N(CC2CC2)c2ccc3ncc(-c4cn(CCN5CCOCC5)nn4)nc3c2)c1 | ~5.7 |
| COc1cc(OC)cc(N(CCO)c2ccc3ncc(-c4ccc(N5CCN(C)CC5)nc4)nc3c2)c1 | ~6.14 |
| COc1cc(OC)cc(N(CC2CC2)c2ccc3ncc(-c4cn[nH]n4)nc3c2)c1 | <5 |
| COc1cc(OC)cc(N(CCO)c2ccc3ncc(-c4ccc(N5CCNCC5)cc4)nc3c2)c1 | ~6.1 |
| COc1cc(OC)cc(N(CCO)c2ccc3ncc(/C(C)=N/OC(C)(C)C)nc3c2)c1 | <5 |
| COc1cc(OC)cc(N(CC2CC2)c2ccc3ncc(C(=O)Nc4cncn4C)nc3c2)c1 | <5 |
| COc1cc(OC)cc(N(CCCO)c2ccc3ncc(-c4ccnc(N)c4)nc3c2)c1 | ~7.05 |
| COc1cc(OC)cc(N(CCCO)c2ccc3ncc(-c4ccc(N(C)C(=O)OC(C)(C)C)nc4)nc3c2)c1 | ~6.04 |
| COc1cc(OC)cc(N(CCCO)c2ccc3ncc(-c4cccnc4)nc3c2)c1 | ~6.39 |
